What MRT inf was measured for each of the following?
Test: in vivo
Settings: beagle, dog, po, 10 mg/kg
I only need the number, in h, no unit after it.

The reported MRT inf of the molecule COc1ccc([C@@]23CC[C@@H](O)C[C@@H]2N(C)CC3)cc1OC was 3.95

The reported MRT inf of the molecule COc1ccc([C@@]23CC[C@H](O)C[C@@H]2N(C)CC3)cc1OC was 4.85

###

Biological target: PDE4B2 (Homo sapiens (Human))
Sequence (Q07343 other isoform, or with tags, fused parts or gaps): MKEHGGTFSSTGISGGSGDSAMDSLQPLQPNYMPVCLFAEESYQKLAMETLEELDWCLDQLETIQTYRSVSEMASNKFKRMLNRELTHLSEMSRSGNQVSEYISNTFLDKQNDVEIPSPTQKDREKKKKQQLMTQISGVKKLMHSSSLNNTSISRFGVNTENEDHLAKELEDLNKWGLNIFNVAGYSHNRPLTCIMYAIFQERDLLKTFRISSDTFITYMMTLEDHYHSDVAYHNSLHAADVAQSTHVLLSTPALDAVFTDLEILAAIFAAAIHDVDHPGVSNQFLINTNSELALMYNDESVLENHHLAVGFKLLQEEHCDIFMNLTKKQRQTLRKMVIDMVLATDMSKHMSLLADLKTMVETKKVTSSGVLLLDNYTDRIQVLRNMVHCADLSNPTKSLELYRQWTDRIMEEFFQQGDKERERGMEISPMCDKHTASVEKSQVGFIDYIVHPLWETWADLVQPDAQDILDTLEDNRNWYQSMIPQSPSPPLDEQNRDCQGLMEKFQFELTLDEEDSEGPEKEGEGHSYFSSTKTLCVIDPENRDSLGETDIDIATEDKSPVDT
Assay: PDE4 inhibition assay (fluorescence polarization), PDE4B2
Type: biochemical
assayReadout: PDE4B2 % INH @ 10 μM (%)
I only need the number, in %, no unit after it.

Noted PDE4B2 % INH @ 10 μM for COc1ccc(C23C=CC(O)CC2N(C)CC3)cc1OC [Compound 020, (S, R, S) Mesembrenol] , tested on PDE4B2 (Homo sapiens (Human)): 62

Noted PDE4B2 % INH @ 10 μM for COc1ccc(C23C=CC(O)CC2N(C)CC3)cc1OC [Compound 024, (S, S, R) Mesembrenol] , tested on PDE4B2 (Homo sapiens (Human)): 55

Noted PDE4B2 % INH @ 10 μM for COc1ccc(C23C=CC(O)CC2N(C)CC3)cc1OC [Compound 023, (R, S, R) Mesembrenol] , tested on PDE4B2 (Homo sapiens (Human)): 16

Noted PDE4B2 % INH @ 10 μM for COc1ccc([C@@]23CC[C@H](O)C[C@@H]2N(C)CC3)cc1OC , tested on PDE4B2 (Homo sapiens (Human)): 0

Noted PDE4B2 % INH @ 10 μM for COc1ccc(C23C=CC(O)CC2N(C)CC3)cc1OC [Compound 021, (R, R, S) Mesembrenol] , tested on PDE4B2 (Homo sapiens (Human)): 12

Noted PDE4B2 % INH @ 10 μM for COc1ccc([C@@]23CC[C@@H](O)C[C@@H]2N(C)CC3)cc1OC , tested on PDE4B2 (Homo sapiens (Human)): 3

###

What pIC50 was measured for each of the following?
Target: SERT (Homo sapiens (Human))
Assay: SERT inhibition assay (Neurotransmitter Transporter fluorescence uptake, stable 5HTT HEK293 cells)
Settings: n=6 ± SD
Scale: pIC50 equals -log10([C]), with [C] in mol/L.

The reported pIC50 of the molecule COc1ccc([C@@]23CC[C@@H](O)C[C@@H]2N(C)CC3)cc1OC was 7.66

The reported pIC50 of the molecule COc1ccc([C@@]23CC[C@H](O)C[C@@H]2N(C)CC3)cc1OC was 7.97

###

Assay: in vivo
Conditions: beagle, dog, iv, 2 mg/kg
assayReadout: AUC(0-inf) (ng·h/mL)
I only need the number, in ng·h/mL, no unit after it.

The reported AUC(0-inf) of the compound COc1ccc([C@@]23CC[C@@H](O)C[C@@H]2N(C)CC3)cc1OC [Compound 018] was 712

The reported AUC(0-inf) of the compound COc1ccc([C@@]23CC[C@H](O)C[C@@H]2N(C)CC3)cc1OC [Compound 019] was 3140

###

Experiment: in vivo
Details: beagle, dog, iv, 2 mg/kg
assayReadout: AUC(0-t) (ng·h/mL)
I only need the number, in ng·h/mL, no unit after it.

The reported AUC(0-t) of the compound COc1ccc([C@@]23CC[C@@H](O)C[C@@H]2N(C)CC3)cc1OC was 710

The reported AUC(0-t) of the compound COc1ccc([C@@]23CC[C@H](O)C[C@@H]2N(C)CC3)cc1OC was 3120
